Sourced from patent US20090318446A1

TARGET DESC: CDK2/cyclin E (Homo sapiens)
TEST DESCRIPTION: Kinase assay CDK2/cyclin E
Format: biochemical
DETAILS: Table 3; read-out: Kinase inhibition CDK2E
METRIC: pIC50
Would you please state pIC50, meaning minus log10 of the concentration in mol/L, as a bare number?

Example entries and their recorded answers appear below.
> print(dat)
                                   molecule  recorded.number
1  COc1ccc(Nc2nccc(-c3c[nH]c4ccccc34)n2)cn1 [Compound 4]             5.90
2  Fc1ccc(Nc2nccc(-c3c[nH]c4ccccc34)n2)cc1 [Compound 3]             5.93
3  COc1cc(Nc2nccc(-c3c[nH]c4ccccc34)n2)cc(OC)c1OC [Compound 12]             5.74
4  O=[N+]([O-])c1cccc(Nc2nccc(-c3c[nH]c4ccccc34)n2)c1 [Compound 2]             5.53
5  c1ccc2c(-c3ccnc(Nc4ccc(N5CCNCC5)cc4)n3)c[nH]c2c1 [Compound 7]             5.71

Ask: // fetch CDK2/cyclin E (Homo sapiens) pIC50 for Cc1cc(N2CCOCC2)ccc1Nc1nccc(-c2c[nH]c3ccccc23)n1 [Compound 11]
Reply: 6.48

---

Here the recorded log10 of IC50 is given for each entry.
TARGET DESC: CDK9/cyclin T1 (Homo sapiens)
Sequence (P50750 whole entry): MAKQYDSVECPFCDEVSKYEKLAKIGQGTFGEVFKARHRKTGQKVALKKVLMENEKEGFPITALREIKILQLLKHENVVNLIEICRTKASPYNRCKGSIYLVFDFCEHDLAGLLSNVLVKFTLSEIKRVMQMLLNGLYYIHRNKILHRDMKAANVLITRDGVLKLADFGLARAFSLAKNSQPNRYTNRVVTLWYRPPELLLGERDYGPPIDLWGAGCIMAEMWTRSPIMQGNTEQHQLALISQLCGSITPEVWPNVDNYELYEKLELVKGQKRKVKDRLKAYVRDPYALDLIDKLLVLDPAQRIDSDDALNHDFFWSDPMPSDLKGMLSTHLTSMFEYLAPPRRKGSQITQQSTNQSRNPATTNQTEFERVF
Sequence (O60563 whole entry partner): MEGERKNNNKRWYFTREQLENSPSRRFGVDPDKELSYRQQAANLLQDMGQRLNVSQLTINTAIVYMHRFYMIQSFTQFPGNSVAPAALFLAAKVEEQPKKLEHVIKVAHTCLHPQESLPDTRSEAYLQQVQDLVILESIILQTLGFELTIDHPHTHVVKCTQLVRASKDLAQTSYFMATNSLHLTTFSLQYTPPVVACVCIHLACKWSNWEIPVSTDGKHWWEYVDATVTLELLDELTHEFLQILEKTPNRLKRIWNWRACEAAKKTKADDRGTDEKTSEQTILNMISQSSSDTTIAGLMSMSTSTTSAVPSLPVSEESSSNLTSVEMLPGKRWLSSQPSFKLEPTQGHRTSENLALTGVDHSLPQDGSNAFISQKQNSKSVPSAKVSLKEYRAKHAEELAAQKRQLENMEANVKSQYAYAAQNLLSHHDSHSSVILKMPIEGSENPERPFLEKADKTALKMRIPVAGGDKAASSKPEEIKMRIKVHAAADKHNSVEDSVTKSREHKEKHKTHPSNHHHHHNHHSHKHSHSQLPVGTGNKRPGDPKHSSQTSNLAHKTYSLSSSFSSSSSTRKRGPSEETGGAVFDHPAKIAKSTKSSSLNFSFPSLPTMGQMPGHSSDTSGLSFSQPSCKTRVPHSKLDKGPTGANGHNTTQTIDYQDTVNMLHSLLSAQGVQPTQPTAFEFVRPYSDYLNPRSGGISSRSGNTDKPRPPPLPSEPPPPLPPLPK
TEST DESCRIPTION: CDK 9 assay
Assay type: biochemical
DETAILS: Table 3; read-out: Kinase inhibition CDK9T1
Log10 applied to IC50; unit prior to transform: µM.

Solved entries (count: 9):
> print(dat)
                                   compound         metric  recorded.number
1  CC1CN(c2ccc(Nc3nccc(-c4c[nH]c5ccccc45)n3)cc2)CC(C)O1 (stereo not shown)  log10 of IC50             0.48
2  c1ccc2c(-c3ccnc(Nc4ccc(N5CCNCC5)cc4)n3)c[nH]c2c1  log10 of IC50            -0.28
3  CC(=O)N1CCN(c2ccc(Nc3nccc(-c4c(C)[nH]c5ccccc45)n3)cc2)CC1  log10 of IC50             0.65
4  COc1cc(Nc2nccc(-c3c[nH]c4ccccc34)n2)ccc1N1CCOCC1  log10 of IC50             0.63
5  COc1ccc(Nc2nccc(-c3c[nH]c4ccccc34)n2)cn1  log10 of IC50             0.45
6  CC(=O)N1CCN(c2ccc(Nc3nccc(-c4c[nH]c5ccccc45)n3)cc2)CC1  log10 of IC50             0.32
7  O=[N+]([O-])c1cccc(Nc2nccc(-c3c[nH]c4ccccc34)n2)c1  log10 of IC50             0.78
8  CN(C)c1ccc(Nc2nccc(-c3c[nH]c4ccccc34)n2)cc1  log10 of IC50             0.20
9  COc1cc(Nc2nccc(-c3c[nH]c4ccccc34)n2)cc(OC)c1OC  log10 of IC50             0.10

Ask: // lookup log10 of IC50 for "CC(=O)N1CCN(c2ccc(Nc3nccc(-c4c[nH]c5c(C)cccc45)n3)cc2)CC1"
Reply: 0.19

---

TARGET DESC: Drosophila Aurora A (Drosophila melanogaster)
Sequence (Q9VGF9 entry or part of it): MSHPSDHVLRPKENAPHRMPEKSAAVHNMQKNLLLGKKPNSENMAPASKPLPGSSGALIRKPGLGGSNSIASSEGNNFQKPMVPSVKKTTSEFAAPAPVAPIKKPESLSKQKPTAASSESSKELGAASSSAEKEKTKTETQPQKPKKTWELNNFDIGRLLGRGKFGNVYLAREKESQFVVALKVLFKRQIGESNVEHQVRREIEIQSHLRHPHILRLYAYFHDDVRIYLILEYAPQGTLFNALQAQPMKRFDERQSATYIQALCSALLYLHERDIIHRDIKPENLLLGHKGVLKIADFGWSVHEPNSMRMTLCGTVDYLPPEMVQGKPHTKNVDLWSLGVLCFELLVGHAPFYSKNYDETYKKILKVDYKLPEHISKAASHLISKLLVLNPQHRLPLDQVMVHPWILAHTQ
pIC50: recorded values
API: returns pIC50 as number; meaning -log10 of concentration in mol/L.

Solved cases below.
> print(dat)
                            compound.smiles  recorded.number
1  O=[N+]([O-])c1cccc(Nc2nccc(-c3c[nH]c4ccccc34)n2)c1             6.56
2  COc1ccc(Nc2nccc(-c3c[nH]c4ccccc34)n2)cn1             6.61

Moving on to another compound below.
Ask: Given "Fc1ccc(Nc2nccc(-c3c[nH]c4ccccc34)n2)cc1" , state its recorded pIC50.
Reply: 5.98

---

pIC50: recorded values
TARGET DESC: CDK4/cyclin D1 (Homo sapiens, UniProt P11802)
Sequence (P11802 whole entry, species assumed): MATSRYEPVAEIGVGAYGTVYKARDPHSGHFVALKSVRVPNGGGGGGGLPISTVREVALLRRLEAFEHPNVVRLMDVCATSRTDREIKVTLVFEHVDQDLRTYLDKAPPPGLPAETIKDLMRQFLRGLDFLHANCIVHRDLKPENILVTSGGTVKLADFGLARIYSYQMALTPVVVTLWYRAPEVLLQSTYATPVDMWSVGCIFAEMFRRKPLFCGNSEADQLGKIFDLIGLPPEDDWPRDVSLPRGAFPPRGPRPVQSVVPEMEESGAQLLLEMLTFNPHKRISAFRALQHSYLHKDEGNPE
Sequence (P24385 whole entry partner, species assumed): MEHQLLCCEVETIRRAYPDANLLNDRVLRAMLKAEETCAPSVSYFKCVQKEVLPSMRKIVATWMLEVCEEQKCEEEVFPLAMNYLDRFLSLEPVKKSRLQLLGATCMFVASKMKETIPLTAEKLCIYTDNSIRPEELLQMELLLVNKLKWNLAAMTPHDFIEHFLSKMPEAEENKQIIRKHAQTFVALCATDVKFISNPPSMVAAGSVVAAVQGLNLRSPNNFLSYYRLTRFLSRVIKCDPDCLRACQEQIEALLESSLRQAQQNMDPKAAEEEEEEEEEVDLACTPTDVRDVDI
TEST DESCRIPTION: Kinase assay CDK4/cyclin D1
Format: biochemical
DETAILS: Table 3; read-out: Kinase inhibition CDK4D1
// pIC50 here means minus log10 of the molar concentration (mol/L)

> print(dat)
                                   molecule  metric  recorded.number
1  CC(=O)N1CCN(c2ccc(Nc3nccc(-c4c[nH]c5ccccc45)n3)cc2)CC1 [Compound 6]   pIC50             5.36
2  CN(C)c1ccc(Nc2nccc(-c3c[nH]c4ccccc34)n2)cc1 [Compound 10]   pIC50             5.24
3  c1ccc2c(-c3ccnc(Nc4ccc(N5CCNCC5)cc4)n3)c[nH]c2c1 [Compound 7]   pIC50             6.37

Ask: Given the entry COc1ccc(Nc2nccc(-c3c[nH]c4ccccc34)n2)cn1 [Compound 4] , report its measured pIC50.
Reply: 6.00

Ask: For the molecule CC1CN(c2ccc(Nc3nccc(-c4c[nH]c5ccccc45)n3)cc2)CC(C)O1 (centres unmarked) [Compound 9] , what pIC50 is on record?
Reply: 5.26

---

TARGET DESC: CDK7/cyclin H (Homo sapiens)
Sequence (P50613 whole entry): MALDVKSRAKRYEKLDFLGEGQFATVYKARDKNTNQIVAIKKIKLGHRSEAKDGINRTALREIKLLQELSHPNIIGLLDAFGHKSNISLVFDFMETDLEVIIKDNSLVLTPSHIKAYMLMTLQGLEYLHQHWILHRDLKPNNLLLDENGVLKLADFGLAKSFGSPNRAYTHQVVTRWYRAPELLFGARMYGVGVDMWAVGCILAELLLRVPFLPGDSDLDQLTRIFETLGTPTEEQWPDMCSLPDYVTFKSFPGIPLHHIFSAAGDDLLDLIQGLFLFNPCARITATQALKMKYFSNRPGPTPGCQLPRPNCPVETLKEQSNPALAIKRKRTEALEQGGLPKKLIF
Sequence (P51946 whole entry partner): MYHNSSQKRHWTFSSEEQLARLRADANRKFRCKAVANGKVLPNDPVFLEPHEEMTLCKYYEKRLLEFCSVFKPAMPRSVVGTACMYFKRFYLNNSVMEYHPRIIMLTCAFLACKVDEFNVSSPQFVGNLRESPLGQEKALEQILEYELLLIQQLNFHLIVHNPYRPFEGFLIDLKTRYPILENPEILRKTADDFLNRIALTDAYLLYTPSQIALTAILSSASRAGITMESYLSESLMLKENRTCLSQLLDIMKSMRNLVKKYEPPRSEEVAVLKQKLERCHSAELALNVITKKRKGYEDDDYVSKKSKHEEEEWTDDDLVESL
TEST DESCRIPTION: CDK 7 assay
Type: biochemical
DETAILS: Table 3; read-out: Kinase inhibition CDK7H
Procedure: CTD peptide substrate (biotinyl-Ahx-(Tyr-Ser-Pro-Thr-Ser-Pro-Ser)4-NH2; 1-2 mg/mL) and recombinant human CDK7/cyclin H, CDK9/cyclin TI, or CDK9/cyclin K (0.5-2 μg) were incubated for 45 min at 30° C. in the presence of varying amounts of test compound in 20 mM MOPS pH 7.2, 25 mM β-glycerophosphate, 5 mM EGTA, 1 mM DTT, 1 mM sodium vanadate, 15 mM MgCl2, and 100 μM ATP (containing a trace amount of ^32PγATP) in a total volume of 25 μL in a 96-well microtiter plate. […]
METRIC: IC50 (µM)
Numeric only. Scale: µM

Ask: Find the measured IC50: item "CN(C)c1ccc(Nc2nccc(-c3c[nH]c4ccccc34)n2)cc1" , target or system CDK7/cyclin H (Homo sapiens).
Reply: 5.23

Ask: Record "c1ccc(CN2CCN(c3ccc(Nc4nccc(-c5c[nH]c6ccccc56)n4)cc3)CC2)cc1" : what is its IC50 with CDK7/cyclin H (Homo sapiens)?
Reply: 6.04

Ask: Form entry - test system: CDK7/cyclin H (Homo sapiens); read-out: IC50; compound: "c1ccc2c(-c3ccnc(Nc4ccc(N5CCNCC5)cc4)n3)c[nH]c2c1"
Reply: 2.53

Ask: // fetch CDK7/cyclin H (Homo sapiens) IC50 for CC1CN(c2ccc(Nc3nccc(-c4c[nH]c5ccccc45)n3)cc2)CC(C)O1 (stereo not shown)
Reply: 6.67

Ask: Look up IC50 with CDK7/cyclin H (Homo sapiens) for this compound: "CC(=O)N1CCN(c2ccc(Nc3nccc(-c4c[nH]c5c(C)cccc45)n3)cc2)CC1"
Reply: 3.47

Ask: CDK7/cyclin H (Homo sapiens) / IC50 / "CC(=O)N1CCN(c2ccc(Nc3nccc(-c4c(C)[nH]c5ccccc45)n3)cc2)CC1" : value?
Reply: 6.66

Ask: # query: IC50 | item "COc1ccc(Nc2nccc(-c3c[nH]c4ccccc34)n2)cn1" | system: CDK7/cyclin H (Homo sapiens)
Reply: 5.44

---

TARGET DESC: aurora-A (Homo sapiens)
Construct: purchased Upstate, Dundee, UK
Sequence (O14965 whole entry): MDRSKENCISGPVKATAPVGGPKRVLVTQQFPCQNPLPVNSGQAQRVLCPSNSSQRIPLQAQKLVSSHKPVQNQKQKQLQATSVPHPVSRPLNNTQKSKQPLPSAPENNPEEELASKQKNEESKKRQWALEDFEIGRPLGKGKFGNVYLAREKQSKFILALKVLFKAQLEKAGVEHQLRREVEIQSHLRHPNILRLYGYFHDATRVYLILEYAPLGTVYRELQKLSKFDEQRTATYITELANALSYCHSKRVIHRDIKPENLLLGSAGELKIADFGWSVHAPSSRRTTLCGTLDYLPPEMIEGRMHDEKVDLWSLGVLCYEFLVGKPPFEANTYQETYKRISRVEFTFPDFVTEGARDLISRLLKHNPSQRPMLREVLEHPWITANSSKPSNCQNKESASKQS
TEST DESCRIPTION: Aurora-A (human) kinase assay
Type: biochemical
DETAILS: Table 2; read-out: Kinase inhibition IC50 Aurora A
METRIC: IC50 (nM)
All answers are understood in nM, so give the number only.

Example results:
> print(dat)
                            compound.smiles  recorded.number
1  c1ccc2c(-c3ccnc(Nc4ccc(N5CCOCC5)cc4)n3)c[nH]c2c1               58
2  COc1ccc(Nc2nccc(-c3c[nH]c4ccccc34)n2)cn1              240
3   Fc1ccc(Nc2nccc(-c3c[nH]c4ccccc34)n2)cc1             1100

Next up:
Ask: Recall the recorded IC50 for "O=[N+]([O-])c1cccc(Nc2nccc(-c3c[nH]c4ccccc34)n2)c1" with aurora-A (Homo sapiens) and state it.
Reply: 270

---

TARGET DESC: Flt-3 (Homo sapiens, UniProt P36888)
Construct: purchased Upstate, Dundee, UK
Sequence (P36888 564-993 limits assumed, species assumed): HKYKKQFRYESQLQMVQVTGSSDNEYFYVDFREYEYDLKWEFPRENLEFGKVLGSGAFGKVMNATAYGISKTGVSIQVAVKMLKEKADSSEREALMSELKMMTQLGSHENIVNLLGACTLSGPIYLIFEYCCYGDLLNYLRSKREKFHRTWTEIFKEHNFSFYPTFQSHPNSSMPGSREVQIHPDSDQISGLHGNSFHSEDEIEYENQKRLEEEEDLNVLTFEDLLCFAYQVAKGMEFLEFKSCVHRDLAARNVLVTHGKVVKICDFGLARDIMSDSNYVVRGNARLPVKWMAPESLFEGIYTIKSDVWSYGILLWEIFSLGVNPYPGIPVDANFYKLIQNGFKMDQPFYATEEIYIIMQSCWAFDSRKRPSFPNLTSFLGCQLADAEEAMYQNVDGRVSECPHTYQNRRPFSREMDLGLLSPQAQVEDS
TEST DESCRIPTION: Flt3 kinase assay
Assay type: biochemical
DETAILS: Table 3; read-out: Kinase inhibition Flt3
pIC50: −log10 of the molar value.
If the reported pIC50 equals or exceeds 7, assign Y. If not, assign N.

Worked examples follow.
> print(dat)
                                   compound  category
1  Cc1cc(N2CCOCC2)ccc1Nc1nccc(-c2c[nH]c3ccccc23)n1 [Compound 11]         N
2  CC(=O)N1CCN(c2ccc(Nc3nccc(-c4c(C)[nH]c5ccccc45)n3)cc2)CC1 [Compound 22]         Y
3  CC(=O)N1CCN(c2ccc(Nc3nccc(-c4c[nH]c5ccccc45)n3)cc2)CC1 [Compound 6]         Y
4  CC(=O)N1CCN(c2ccc(Nc3nccc(-c4c[nH]c5c(C)cccc45)n3)cc2)CC1 [Compound 23]         Y

Ask: Could you please find out whether COc1cc(Nc2nccc(-c3c[nH]c4ccccc34)n2)ccc1N1CCOCC1 [Compound 13] has pIC50 that meets 7 or exceeds it?
Reply: Y

Ask: Does the compound c1ccc2c(-c3ccnc(Nc4ccc(N5CCNCC5)cc4)n3)c[nH]c2c1 [Compound 7] have recorded pIC50 that is 7 or more?
Reply: Y
